Form field: GI50 (one value per entry).
- Test system: MALME-3M melanoma
- protocolSummary: NCI tumour cell line growth inhibition, 48 h

smi: CC(=O)N[C@H]1CSSC[C@@H](C(N)=O)NC(=O)[C@H](C(C)C)NC(=O)[C@H](C)NC(=O)[C@H](Cc2cnc[nH]2)NC1=O
GI50: > 100000 nM
//
smi: Nc1ccc2cc3ccc(N)cc3nc2c1
GI50: 1.16 µM [middle of 4 runs]
//
smi: COc1ccc(CCN2COc3c([C@@H](C)CCC=C(C)C)ccc(C)c3C2)cc1OC
GI50: 1530 nM
//
smi: O=S(=O)(Nc1cc(Sc2cccc3cccnc23)c(O)c2ccccc12)c1ccccc1
GI50: 2720 nM

---

- Test system: UACC-257 melanoma
- protocolSummary: NCI tumour cell line growth inhibition, 48 h; in the data active = GI50 below about 0.43 µM; inactive = the rest
Possible outcomes: t for active, f for inactive

smi: Cc1[nH]c2ccccc2c(=O)c1CC=C(Cl)Cl
categoryLabel: f

smi: Cn1c(=O)c(Cc2ccccc2F)cc2cnc(NC3CCOCC3)nc21
categoryLabel: f

smi: CCSc1nc(SCC)c2cn[nH]c2n1
categoryLabel: f

smi: O=C(/C=C\c1ccc(NCc2ccc(C(=O)O)cc2)cc1)CCl
categoryLabel: f

smi: CN(C)C(=O)[C@H](O)[C@H](Cc1ccccc1)NC(=O)c1cc2cc(Cl)ccc2[nH]1
categoryLabel: f

smi: CN(C)CCN1C(=O)c2ccc3c4c(ccc(c24)C1=O)C(=O)N(CCN=C=S)C3=O
categoryLabel: t

---

- Test system: KM12 colon
- protocolSummary: NCI tumour cell line growth inhibition, 48 h
metricName: TGI

compound: CC1=C(CO)C(=O)O[C@@H]([C@@H](CO)[C@H]2CCC3C4C[C@@H](O)[C@@]5(O)CC=CC(=O)[C@]5(C)C4CC[C@@]32C)C1 (stereo partly drawn)
testResult: > 100 µM

compound: C=CCOc1ccc(C2C(C(=O)OCC)C(=O)CC(C)(O)C2C(=O)OCC)cc1OC (stereo not drawn)
testResult: > 100 µM

compound: Cn1c2ccccc2c(=O)c2ccc(Cl)cc21
testResult: > 10 µM

---

Form field: TGI (one value per entry).
- System: KM12 colon
- protocolSummary: NCI tumour cell line growth inhibition, 48 h

compound: Cn1c2ccccc2c(=NNc2cccc(C(=O)O)c2)c2ccccc21
TGI: 47.5 µM
//
compound: O=c1cc(NC2CCN(CCCc3ccccc3)CC2)c2cc(Cl)ccc2o1
TGI: 25 µM
//
compound: O=C1/C(=C/c2cccc([N+](=O)[O-])c2)COc2ccc(Br)cc21
TGI: > 100 µM
//
compound: Nc1ccc(S2(c3ccc(N)cc3)C=C(c3ccccc3)C(c3ccccc3)=C2)cc1
TGI: > 100 µM
//
compound: C=C1CCC(CC[C@@H]2CC[C@]3(OC2)O[C@@]2(O)CC[C@]3(C)OC2(C)C)C(C)(C)[C@H]1C/C=C1/C(=O)OC[C@@H]1O (stereo not given in full)
TGI: 6.35 µM
//
compound: Cc1ccc(S(=O)(=O)NC(=O)N[C@@H](Cc2cnc[nH]2)C(=O)O)cc1
TGI: > 100 µM
//
compound: CC(C)CC(O)P(=O)(O)O (stereo not given)
TGI: > 100 µM
//
compound: CCOC(=O)c1ccc(C)c(N=NN(C)C)c1
TGI: > 100 µM
//
compound: OCc1ccc(C2CC(c3ccco3)=NN2c2ccccc2)o1 (stereo not given)
TGI: > 100 µM
//
compound: CC(C)(C)C(=O)CC1=Nc2ccccc2SC1(O)CC(=O)C(C)(C)C (stereo not given)
TGI: > 100 µM

---

- Tested on: RPMI-8226 leukemia
- protocolSummary: NCI tumour cell line growth inhibition, 48 h
metricName: TGI

compound: CCOC(=O)c1ccc(C)c(N=NN(C)C)c1
testTarget: RPMI-8226 leukemia
testResult: > 100 µM
--
compound: C=C(Cl)C(C)(Cl)CCC(Br)C(C)(C)Cl (configuration not stated)
testTarget: RPMI-8226 leukemia
testResult: 50.6 µM
--
compound: CC1=C(CO)C(=O)O[C@@H]([C@@H](CO)[C@H]2CCC3C4C[C@@H](O)[C@@]5(O)CC=CC(=O)[C@]5(C)C4CC[C@@]32C)C1 (some centres not stated)
testTarget: RPMI-8226 leukemia
testResult: > 100 µM
--
compound: CC(=O)O[C@H]1CC[C@@]2(C)C(=CC[C@H]3[C@@H]4C[C@H](N5CCOCC5)[C@H](OC(C)=O)[C@@]4(C)CC[C@@H]32)C1
testTarget: RPMI-8226 leukemia
testResult: > 100 µM
--
compound: O=C1CC2c3ccccc3CCC2c2ccccc21 (configuration not stated)
testTarget: RPMI-8226 leukemia
testResult: > 100 µM
--
compound: CCC1(C)C=Cc2c(cc(O)c3c(=O)c4ccccc4n(C)c23)O1 (configuration not stated)
testTarget: RPMI-8226 leukemia
testResult: > 10 µM
--
compound: COc1ccc(/C=C2\N=C(SC)NC2=O)cc1
testTarget: RPMI-8226 leukemia
testResult: > 100 µM
--
compound: Cc1cc(S(=O)(=O)Nc2nc3cc(-c4ccc(Cl)cc4)sc3c(=O)n2N)c(S)cc1Cl
testTarget: RPMI-8226 leukemia
testResult: > 100 µM
--
compound: C=C1C(=O)OC2/C=C(\COC(C)=O)CCC(OC(C)=O)C3=CC(OC3=O)C12 (configuration not stated)
testTarget: RPMI-8226 leukemia
testResult: > 100 µM
--
compound: O=C1CC2CCCC23CC2(CCN13)OCCO2 (configuration not stated)
testTarget: RPMI-8226 leukemia
testResult: > 100 µM
--
compound: S=C1OC2CCCC[C@H]2O1 (some centres not stated)
testTarget: RPMI-8226 leukemia
testResult: > 100 µM
--
compound: Cc1[nH]c2ccccc2c(=O)c1CC=C(Cl)Cl
testTarget: RPMI-8226 leukemia
testResult: > 100 µM
--
compound: CC(=O)OCC1OC(n2c3c(cc(C#N)c2=S)CCCCC3)C(OC(C)=O)C(OC(C)=O)C1OC(C)=O (configuration not stated)
testTarget: RPMI-8226 leukemia
testResult: > 100 µM
--
compound: Nc1[nH]nc2nc3ccc(C(F)(F)F)cc3nc12
testTarget: RPMI-8226 leukemia
testResult: > 100 µM
--
compound: N#Cc1cccnc1Cl
testTarget: RPMI-8226 leukemia
testResult: > 100 µM
--
compound: Nc1ccn(C2CCC(CO)O2)c(=O)n1 (configuration not stated)
testTarget: RPMI-8226 leukemia
testResult: > 1000 µM
--
compound: Cc1ccc(O)c(-c2cscn2)c1
testTarget: RPMI-8226 leukemia
testResult: > 100 µM
--
compound: CC(C)(Cl)C(Br)CCC(=CCCl)CBr (mixture of isomers)
testTarget: RPMI-8226 leukemia
testResult: 4.38 µM
--
compound: CSC(C1c2ccccc2N(c2ccc(C)cc2)c2[nH]c(=O)n(C)c(=O)c21)S(=O)(=O)c1ccc(C)cc1 (configuration not stated)
testTarget: RPMI-8226 leukemia
testResult: > 100 µM
--
compound: CN(C)c1ccc(C2SCC(=O)N2c2ccc(Oc3ccc(Cl)cc3)c(Cl)c2)cc1 (configuration not stated)
testTarget: RPMI-8226 leukemia
testResult: 58.1 µM
--
compound: Cc1ccc(S(=O)(=O)NC(=O)N[C@@H](Cc2cnc[nH]2)C(=O)O)cc1
testTarget: RPMI-8226 leukemia
testResult: > 100 µM
--
compound: COc1cc(NC(C)CCCN)c2nccc(C)c2c1 (configuration not stated)
testTarget: RPMI-8226 leukemia
testResult: 60.7 µM
--
compound: CCCCN=C(c1ccccc1)N1CCOCC1
testTarget: RPMI-8226 leukemia
testResult: > 100 µM
--
compound: Nc1nc(F)nc2c1ncn2C1OC(CO)C(O)C1O (configuration not stated)
testTarget: RPMI-8226 leukemia
testResult: > 100 µM
--
compound: Cc1ccc(-c2nc3ccc(Cl)cc3c(=O)n2N2C(=O)CSC2c2ccccc2Cl)cc1 (configuration not stated)
testTarget: RPMI-8226 leukemia
testResult: > 100 µM
--
compound: ClCC[N+]12CC[N+](CCCl)(CC1)C2
testTarget: RPMI-8226 leukemia
testResult: > 100 µM
--
compound: O=S(=O)(Nc1cc(Sc2cccc3cccnc23)c(O)c2ccccc12)c1ccccc1
testTarget: RPMI-8226 leukemia
testResult: 7.9 µM
--
compound: COc1cc(OC)c(C2c3cc4c(cc3OC(N3CCCC3)C2C)OCO4)c(OC)c1 (configuration not stated)
testTarget: RPMI-8226 leukemia
testResult: 43.1 µM
--
compound: Nc1ccc(S(=O)(=O)Nc2nccs2)cc1
testTarget: RPMI-8226 leukemia
testResult: > 100 µM
--
compound: COC1C=COC2(C)Oc3c(C)c(O)c4c(O)c(c(C5SCCS5)c(O)c4c3C2=O)NC(=O)C(C)=C/C=C\C(C)C2OC(C)(C)OC(C2C)C(C)C(OC(C)=O)C1C (configuration not stated)
testTarget: RPMI-8226 leukemia
testResult: > 100 µM
--
compound: Cc1nc2sc3ccccc3n2c(=O)c1N=Nc1ccc(Cl)cc1
testTarget: RPMI-8226 leukemia
testResult: > 100 µM
--
compound: C=CC[C@]12C=C(OC)[C@@H](O)[C@](OC)(C(c3cc(OC)c4c(c3)OCO4)[C@H]1C)[C@H]2OC(C)=O (some centres not stated)
testTarget: RPMI-8226 leukemia
testResult: > 100 µM
--
compound: COC(=O)C1=C(C)NC(C)=C(C(=O)OC)C1c1nc2sccn2c1[N+](=O)[O-]
testTarget: RPMI-8226 leukemia
testResult: > 100 µM
--
compound: COc1cccc(/C=N/n2c(C)n[nH]c2=O)c1
testTarget: RPMI-8226 leukemia
testResult: > 100 µM
--
compound: CC(C)=CCNc1ncnc2c1ncn2CCC#N
testTarget: RPMI-8226 leukemia
testResult: > 100 µM
--
compound: COc1cc(C(=O)c2cc(C)c3[nH]c4ccc(C)cc4c3c2C)cc(OC)c1OC
testTarget: RPMI-8226 leukemia
testResult: > 100 µM
--
compound: C[C@]12CC[C@@H]3c4cc(OCC(F)(F)F)c(O)cc4/C(=N/O)C[C@H]3[C@@H]1CC[C@@H]2O
testTarget: RPMI-8226 leukemia
testResult: 2.33 µM
--
compound: C=C1CCC(CC[C@@H]2CC[C@]3(OC2)O[C@@]2(O)CC[C@]3(C)OC2(C)C)C(C)(C)[C@H]1C/C=C1/C(=O)OC[C@@H]1O (some centres not stated)
testTarget: RPMI-8226 leukemia
testResult: > 25.1 µM
--
compound: Nc1ccc(C(=O)N2CCC[C@H]2CO)c(N)c1
testTarget: RPMI-8226 leukemia
testResult: > 100 µM
--
compound: C/C(CC(=O)NCCc1ccccc1)=N\NC(=O)C[n+]1ccccc1
testTarget: RPMI-8226 leukemia
testResult: > 100 µM
--
compound: CN(C)C(=O)[C@H](O)[C@H](Cc1ccccc1)NC(=O)c1cc2cc(Cl)ccc2[nH]1
testTarget: RPMI-8226 leukemia
testResult: 66.6 µM
--
compound: Cn1c2ccccc2c(=O)c2ccc(Cl)cc21
testTarget: RPMI-8226 leukemia
testResult: > 10 µM
